meta.source: the supplement of paper PMC8967900

selective drug sensitivity score values for the compounds below.
# Test system: CCRF-HSB2;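 further: ALL cell lines in 384-well plates, five doses spanning 10,000-fold, each plate scaled between vehicle and 100 µmol/L benzalkonium chloride controls, sDSS an adapted area-under-curve metric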
# test-details: selective drug sensitivity score (sDSS, relative to normal bone marrow) (sDSS (score)); higher = more potent and effective on the cell line relative to normal bone marrow cells
# experimental-conditions: 72 h

CCCOc1ccn2c(C(C)=O)cc(-c3ccccc3S(C)(=O)=O)c2c1 [GSK2801] (top concentration 10000 nM)    -0.36
Sc1ncnc2nc[nH]c12 [Mercaptopurine] (top concentration 10000 nM)    12.6
O=C(Nc1cccnc1)N1CCC(Cc2cccc(Oc3ccc(C(F)(F)F)cn3)c2)CC1 [PF-3845] (top concentration 10000 nM)    3.26
COc1ccc(Cn2ccc3ccc(C(=O)NO)cc32)cc1 (top concentration 10000 nM)    6.64
CC(C)(C#N)c1cc(Cn2cncn2)cc(C(C)(C)C#N)c1 [Anastrozole] (top concentration 10000 nM)    0
Cc1cc2c(C(C)C)c(O)c(O)c(C=O)c2c(O)c1-c1c(C)cc2c(C(C)C)c(O)c(O)c(C=O)c2c1O [AT-101] (top concentration 100000 nM)    2.48

// sample N[C@@H]1CCCN(c2c(/C=C3\SC(=O)NC3=O)cccc2-c2ccccc2)C1 [AZD1208] (top concentration 10000 nM) , its selective drug sensitivity score was 6.5

// sample CC(=O)Nc1cccc(-n2c(=O)n(C3CC3)c(=O)c3c(Nc4ccc(I)cc4F)n(C)c(=O)c(C)c32)c1 [Trametinib] (top concentration 250 nM) , its selective drug sensitivity score was -1.54

// sample CN[C@@H](C)C(=O)N[C@H]1CN(C(=O)CC(C)C)CC[C@H]2CC[C@@H](C(=O)NC(c3ccccc3)c3ccccc3)N2C1=O [AT-406] (top concentration 10000 nM) , its selective drug sensitivity score was 1.94

// sample Cc1cccc(-c2nn3c(c2-c2ccnc4ccc(C(N)=O)cc24)CCC3)n1 [Galunisertib] (top concentration 1000 nM) , its selective drug sensitivity score was 0

// sample Nc1nc(OCc2cc(Br)cs2)c2[nH]cnc2n1 [Lomeguatrib] (top concentration 10000 nM) , its selective drug sensitivity score was 0

// sample C/C(=C\c1csc(C)n1)[C@@H]1C[C@@H]2O[C@]2(C)CCC[C@H](C)[C@H](O)[C@@H](C)C(=O)C(C)(C)[C@@H](O)CC(=O)N1 [Ixabepilone] (top concentration 1000 nM) , its selective drug sensitivity score was 3.18

// sample C[C@@H](Oc1cc(-c2cnn(C3CCNCC3)c2)cnc1N)c1c(Cl)ccc(F)c1Cl [Crizotinib] (top concentration 1000 nM) , its selective drug sensitivity score was 4.26

// sample O[C@H]1CC[C@H](Nc2ncc3nc(Nc4c(F)cc(F)cc4F)n([C@H]4CCOC4)c3n2)CC1 [Tanzisertib] (top concentration 10000 nM) , its selective drug sensitivity score was 0.2

// sample Nc1nc(N)c2nc(-c3cccc(O)c3)c(-c3cccc(O)c3)nc2n1 [TG100-115] (top concentration 10000 nM) , its selective drug sensitivity score was 3.9

// sample NC(=S)N/N=C/c1ncccc1N [Triapine] (top concentration 10000 nM) , its selective drug sensitivity score was 8.48

// sample CC1(COc2ccc3c(c2)ncn3-c2ccc3cccc(N4CCC(N)CC4)c3n2)COC1 [Crenolanib] (top concentration 10000 nM) , its selective drug sensitivity score was 4.98

// sample Cc1cc(C(C)Nc2ccccc2)c2nc(N3CCOCC3)cc(=O)n2c1 (centres undefined) [TGX-221] (top concentration 10000 nM) , its selective drug sensitivity score was 2.36

// sample COc1cc2ncnc(Nc3cccc(Cl)c3F)c2cc1OC(=O)N1CCN(C)C[C@H]1C [AZD3759] (top concentration 1000 nM) , its selective drug sensitivity score was -0.04
